B1: LINE1-mini (parent)
chain: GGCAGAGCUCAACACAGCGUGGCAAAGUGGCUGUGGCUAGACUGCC

Variants of: B1
Assay: self-cleavage, relative activity (ratio to wild type); higher = more cleavage; in vitro, sequencing; the parent is a self-cleaving ribozyme
measuredEndpoint: self-cleavage
One number for each entry.

Study these solved cases before continuing.
>>> measuredresult("C13A G27C")
0.1
>>> measuredresult("U32A G33U")
0.07
>>> measuredresult("U9C C42U")
0.04
>>> measuredresult("U43G")
0.12
>>> measuredresult("U20A U32C")
0.09

Give measured self-cleavage for every item shown.
1. C15U G36A
2. G27U A39U
3. G17C G22C
4. C8G A25C
5. A16C G44C
6. C3A A6U
7. C18G A39C
8. C10A U34A

Response:
[0.15, 0.56, 0.82, 0.11, 0.02, 0.76, 0.06, 0.05]
